Assay: clinical
Settings: male, human, plasma, po
observable: half-life

Any idea what half-life was measured for CN(CCOc1ccc(CC2SC(=O)NC2=O)cc1)c1ccccn1 (stereo not shown) ?
194 min

---

Experiment: clinical
Conditions: male, human, plasma, po
Below, each entry is listed alongside its reported Tmax.

CN(C)C(=N)N=C(N)N [M, 1,1-Dimethylbiguanidine, reference compound] = 3 h

Proceed to the following item.
Any idea what Tmax was measured for CN(CCOc1ccc(CC2SC(=O)NC2=O)cc1)c1ccccn1 (centres unmarked) ?
3 h
